Attribution: patent US20260078130A1

For each entry below, report its pEC50 value.
target: human enzyme NAMPT (full length) (Homo sapiens, UniProt P43490); construct: human enzyme NAMPT (full length); experiment: NMN fluorescence biochemical assay (stimulation of NMN synthesis by NAMPT); conditions: NMN fluorescence assay, purified human NAMPT 100 nM; concentration giving half-maximal activation; read-out: Enzymatic EC50
Sequence (P43490 whole entry): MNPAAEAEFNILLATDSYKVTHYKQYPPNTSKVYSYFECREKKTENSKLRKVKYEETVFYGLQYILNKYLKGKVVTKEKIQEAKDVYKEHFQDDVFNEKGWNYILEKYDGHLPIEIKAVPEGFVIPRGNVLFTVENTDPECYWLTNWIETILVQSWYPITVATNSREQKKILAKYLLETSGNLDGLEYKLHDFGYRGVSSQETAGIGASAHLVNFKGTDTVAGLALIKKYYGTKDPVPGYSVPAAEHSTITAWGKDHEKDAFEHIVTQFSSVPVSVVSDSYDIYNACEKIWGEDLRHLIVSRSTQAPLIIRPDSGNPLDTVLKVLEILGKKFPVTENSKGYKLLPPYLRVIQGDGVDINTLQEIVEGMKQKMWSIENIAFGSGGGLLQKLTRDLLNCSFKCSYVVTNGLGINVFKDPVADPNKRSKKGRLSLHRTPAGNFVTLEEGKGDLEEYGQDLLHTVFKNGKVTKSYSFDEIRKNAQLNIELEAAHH
pEC50: −log10 of the molar value.

Value (pEC50, human enzyme NAMPT (full length) (Homo sapiens, UniProt P43490)) for record Cn1ncc(Cl)c1CC1c2ccccc2C(C)(C)N1Cc1ccc2[nH]c(=O)oc2c1 (centres unmarked) = > 6.30

Value (pEC50, human enzyme NAMPT (full length) (Homo sapiens, UniProt P43490)) for record Cn1ncc(Cl)c1CC1c2cccc(Br)c2C(=O)N1CC1CC2(CNC(=O)O2)C1 (centres unmarked) = 5.30 to 6.30

Value (pEC50, human enzyme NAMPT (full length) (Homo sapiens, UniProt P43490)) for record O=C1c2ccccc2C(Cc2nn(C(CO)CO)cc2Cl)N1Cc1ccc2[nH]nnc2c1 (centres unmarked) = 5.30 to 6.30

Value (pEC50, human enzyme NAMPT (full length) (Homo sapiens, UniProt P43490)) for record Cn1ncc(Cl)c1CC1c2cc(C(F)F)ccc2C(=O)N1Cc1ccc2[nH]nnc2c1 (centres unmarked) = > 6.30

Value (pEC50, human enzyme NAMPT (full length) (Homo sapiens, UniProt P43490)) for record Cn1ncc(Cl)c1CC1c2cc(F)ccc2C(=S)N1CC1CC2(CNC(=O)O2)C1 (centres unmarked) = > 6.30

Value (pEC50, human enzyme NAMPT (full length) (Homo sapiens, UniProt P43490)) for record Cc1nnn2cc(CN3C(=O)c4ccccc4C3Cc3c(Cl)cnn3C)ccc12 (centres unmarked) = ≤ 5.30

Value (pEC50, human enzyme NAMPT (full length) (Homo sapiens, UniProt P43490)) for record Cn1ncc(Cl)c1CC1c2ccccc2C(=O)N1Cc1ccc2c(c1)ncn2C (centres unmarked) = 5.30 to 6.30

Value (pEC50, human enzyme NAMPT (full length) (Homo sapiens, UniProt P43490)) for record Cn1nnc(Cl)c1CC1c2ccccc2C(=O)N1CC1CC2(CNC(=O)O2)C1 (centres unmarked) = 5.30 to 6.30

---

target: human enzyme NAMPT (full length) (Homo sapiens); construct: human enzyme NAMPT (full length); assay: NMN fluorescence biochemical assay (stimulation of NMN synthesis by NAMPT); conditions: fold change of maximal activation compared to DMSO
MEASURED PROPERTY: Enzymatic Emax

Value (Enzymatic Emax, human enzyme NAMPT (full length) (Homo sapiens)) for record O=c1c2ccccc2ccn1Cc1ccc2[nH]nnc2c1 = B (3≥B>2)

Value (Enzymatic Emax, human enzyme NAMPT (full length) (Homo sapiens)) for record N#Cc1cccc(F)c1C[C@H]1c2ccccc2C(=O)N1Cc1ccc2[nH]c(=O)oc2c1 = B (3≥B>2)

Value (Enzymatic Emax, human enzyme NAMPT (full length) (Homo sapiens)) for record CC(=O)Nc1ccc(CN2Cc3ccccc3C2=O)cc1 = B (3≥B>2)

---

target: human enzyme NAMPT (full length) (Homo sapiens, UniProt P43490); construct: human enzyme NAMPT (full length); test: NMN fluorescence biochemical assay (stimulation of NMN synthesis by NAMPT); settings: NMN fluorescence assay, purified human NAMPT 100 nM; concentration giving half-maximal activation; read-out: Enzymatic EC50
For each entry below, report its EC50 value.

Value (EC50, human enzyme NAMPT (full length) (Homo sapiens, UniProt P43490)) for record COc1ccc2c(c1)C(=O)N(Cc1ccc3[nH]nnc3c1)C2Cc1c(Cl)cnn1C (centres unmarked) = 500 to 5000 nM

Value (EC50, human enzyme NAMPT (full length) (Homo sapiens, UniProt P43490)) for record Cc1ccn(C)c(=O)c1CC1c2ccccc2C(=O)N1CC1CC2(CNC(=O)O2)C1 (centres unmarked) = 500 to 5000 nM

Value (EC50, human enzyme NAMPT (full length) (Homo sapiens, UniProt P43490)) for record O=C1NCC2(CC(CN3C(=O)c4ccccc4C3Cc3c(Cl)nc4ccccn34)C2)O1 (centres unmarked) = 500 to 5000 nM

Value (EC50, human enzyme NAMPT (full length) (Homo sapiens, UniProt P43490)) for record Cn1ncc(Cl)c1CC1c2cc(F)ccc2S(=O)(=O)N1CC1CC2(CNC(=O)O2)C1 (centres unmarked) = 500 to 5000 nM

Value (EC50, human enzyme NAMPT (full length) (Homo sapiens, UniProt P43490)) for record Cn1ncc(Cl)c1CC1c2ccccc2C(=O)N1C[C@]1(F)C[C@]2(CNC(=O)O2)C1 (some centres unmarked) = ≥ 5000 nM

Value (EC50, human enzyme NAMPT (full length) (Homo sapiens, UniProt P43490)) for record COc1ccc(CN2C(=O)c3ccccc3C2Cc2c(Cl)cnn2C)nc1F (centres unmarked) = 500 to 5000 nM

Value (EC50, human enzyme NAMPT (full length) (Homo sapiens, UniProt P43490)) for record Cc1ccnc(C#N)c1CC1c2cc(C#N)ccc2C(=O)N1Cc1ccc2[nH]nnc2c1 (centres unmarked) = < 500 nM

Value (EC50, human enzyme NAMPT (full length) (Homo sapiens, UniProt P43490)) for record Cn1ncc(Cl)c1CC1c2ccccc2C(=O)N1Cc1cnc(O)o1 (centres unmarked) = 500 to 5000 nM

Value (EC50, human enzyme NAMPT (full length) (Homo sapiens, UniProt P43490)) for record COc1ccc(CN2C(=O)c3ccc(Cl)cc3C2Cc2c(C)ncnc2C#N)cn1 (centres unmarked) = ≥ 5000 nM

Value (EC50, human enzyme NAMPT (full length) (Homo sapiens, UniProt P43490)) for record Cn1ncc(Cl)c1CC1c2cc(OC(F)F)ccc2C(=O)N1Cc1ccc2[nH]nnc2c1 (centres unmarked) = < 500 nM

Value (EC50, human enzyme NAMPT (full length) (Homo sapiens, UniProt P43490)) for record O=C1c2ccccc2C(Cc2ncsc2Cl)N1Cc1ccc2[nH]nnc2c1 (centres unmarked) = < 500 nM

Value (EC50, human enzyme NAMPT (full length) (Homo sapiens, UniProt P43490)) for record Cn1ncc(Cl)c1CC1c2ccccc2C(C)(C)N1C/C=C/c1c[nH]nn1 (centres unmarked) = 500 to 5000 nM

Value (EC50, human enzyme NAMPT (full length) (Homo sapiens, UniProt P43490)) for record N#Cc1ccnc(C#N)c1CC1c2ccccc2C(=O)N1CC1CC2(CNC(=O)O2)C1 (centres unmarked) = < 500 nM

Value (EC50, human enzyme NAMPT (full length) (Homo sapiens, UniProt P43490)) for record Cn1ncc(Cl)c1CC1c2ccccc2C(=O)N1Cc1cn[nH]c1 (centres unmarked) = < 500 nM

Value (EC50, human enzyme NAMPT (full length) (Homo sapiens, UniProt P43490)) for record Cn1ncc(Cl)c1CC1c2ccccc2C(=O)N1CC1CC2(CN=C(NC#N)O2)C1 (centres unmarked) = ≥ 5000 nM

Value (EC50, human enzyme NAMPT (full length) (Homo sapiens, UniProt P43490)) for record COc1ccc(CN2C(=O)c3c(F)cc(Cl)cc3C2Cc2c(C)ccnc2C#N)cn1 (centres unmarked) = 500 to 5000 nM

Value (EC50, human enzyme NAMPT (full length) (Homo sapiens, UniProt P43490)) for record Cn1ncc(Cl)c1CC1c2cc(Cl)cc(F)c2C(=O)N1CC1CC2(CNC(=O)O2)C1 (centres unmarked) = < 500 nM

---

biological target: human enzyme NAMPT (full length) (Homo sapiens, UniProt P43490); construct: human enzyme NAMPT (full length); assay: NMN fluorescence biochemical assay (stimulation of NMN synthesis by NAMPT); conditions: fold change of maximal activation compared to DMSO
MEASURED PROPERTY: Enzymatic Emax

Per the record, COc1nn(C)c(CC2c3ccccc3C(=O)N2Cc2ccc3[nH]nnc3c2)c1Cl (stereo not drawn) has Enzymatic Emax of B (3≥B>2)

Per the record, O=C1c2ccccc2C(Cc2ccccc2)N1Cc1ccc2[nH]c(=O)oc2c1 (stereo not drawn) has Enzymatic Emax of A (A>3)

Per the record, CC1c2cc(F)ccc2C(=O)N1Cc1ccc2[nH]c(=O)oc2c1 (stereo not drawn) has Enzymatic Emax of B (3≥B>2)

Per the record, Cn1ncc(Cl)c1CC1c2cc(F)cc(F)c2C(=O)N1CC1CC2(CNC(=O)O2)C1 (stereo not drawn) has Enzymatic Emax of B (3≥B>2)

Per the record, Cn1c(=O)oc2cc(CN3C(=O)c4ccccc4C3Cc3c(Br)cccc3C#N)ccc21 (stereo not drawn) has Enzymatic Emax of A (A>3)

Per the record, COC(C)(C)c1ccc2c(c1)C(Cc1c(Cl)cnn1C)N(Cc1ccc3[nH]nnc3c1)C2=O (stereo not drawn) has Enzymatic Emax of B (3≥B>2)

Per the record, COc1ccc(CN2C(=O)c3ccccc3C2Cc2c(Cl)c(Cl)nn2C)cc1 (stereo not drawn) has Enzymatic Emax of A (A>3)

Per the record, O=C1c2ccncc2CN1Cc1ccc(O)cc1 has Enzymatic Emax of A (A>3)

Per the record, O=C1c2ccccc2C(=O)N1Cc1ccc(O)cc1 [Compound 11, 2-(4-hydroxybenzyl)isoindoline-1,3-dione] has Enzymatic Emax of B (3≥B>2)

Per the record, Cn1nc(C(F)(F)F)c(Cl)c1CC1c2ccccc2C(=O)N1Cc1ccc2[nH]nnc2c1 (stereo not drawn) has Enzymatic Emax of B (3≥B>2)

Next:
Per the record, CC(C)c1cccnc1CC1c2ccccc2C(=O)N1Cc1ccc2[nH]c(=O)oc2c1 (stereo not drawn) has Enzymatic Emax of B (3≥B>2)

Per the record, CC1c2ccccc2C(=O)N1Cc1ccc2[nH]nnc2c1 (stereo not drawn) has Enzymatic Emax of B (3≥B>2)

Per the record, COc1ccc(CN2C(=O)c3ccccc3C2Cc2c(Cl)cnn2C)nc1F (stereo not drawn) has Enzymatic Emax of B (3≥B>2)

Per the record, COc1ccc(CN2C(=O)c3ccccc3C2Cc2ncccc2Br)cn1 (stereo not drawn) has Enzymatic Emax of B (3≥B>2)
